target-entity: MYC:TRRAP interaction (Homo sapiens, UniProt P01106+Q9Y4A5)
Sequence (P01106 16-205): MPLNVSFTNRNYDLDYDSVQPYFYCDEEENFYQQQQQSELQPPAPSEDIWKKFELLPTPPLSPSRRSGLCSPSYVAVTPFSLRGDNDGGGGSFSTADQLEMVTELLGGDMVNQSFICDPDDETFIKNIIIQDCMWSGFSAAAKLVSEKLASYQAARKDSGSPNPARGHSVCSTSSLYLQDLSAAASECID
Sequence (Q9Y4A5 2051-2301): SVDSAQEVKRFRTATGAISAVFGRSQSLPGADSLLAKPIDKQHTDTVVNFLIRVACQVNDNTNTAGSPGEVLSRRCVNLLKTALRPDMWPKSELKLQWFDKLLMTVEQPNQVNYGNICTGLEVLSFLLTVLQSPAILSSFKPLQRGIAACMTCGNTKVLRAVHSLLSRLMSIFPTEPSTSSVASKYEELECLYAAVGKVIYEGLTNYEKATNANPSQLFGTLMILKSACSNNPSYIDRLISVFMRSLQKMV
assay-overview: MYC:TRRAP in-cell luminescence complementation assay (NanoBiT; SmB-MYC 1-190 and TRRAP 2033-2283-LgB in HeLa cells)
Type: cell-based
assay-context: Table 2; compounds with >80% similarity to compound 10 (NSC657456); 10 uM
endpoint-label: % Inhibition 10 uM
Write down the value, and be sure its unit follows.

Please review the following examples before continuing.
CCOC(=O)Cc1csc(/N=N/c2c(O)[nH]c3ccccc23)n1
59.51%
O=C1CSC(/N=N/c2c(O)[nH]c3ccccc23)=N1
104.5%
COc1cc(C=C2S/C(=N/Nc3nc(-c4ccc(Br)cc4)cs3)N=C2O)cc(OC)c1OC (stereo in doubt) [Compound 10N]
88.1%

Quick one: % Inhibition 10 uM of `N=C(S)/N=N/c1c(O)[nH]c2cccc(C(F)(F)F)c12` ?
82.44%

---

Items are presented alongside their recorded % Inhibition 10 uM.
target-entity: MYC:TRRAP interaction (Homo sapiens, UniProt P01106+Q9Y4A5)
assay-overview: MYC:TRRAP in-cell luminescence complementation assay (NanoBiT; SmB-MYC 1-190 and TRRAP 2033-2283-LgB in HeLa cells)
Assay type: cell-based
assay-context: Table 1; 46 primary hits at 10 uM; HeLa cells; triplicate measurements
Report the figure in % without appending any unit label.

Please review the following examples before continuing.
CC1=C(C)C(=O)O[C@H]([C@](C)(O)[C@]2(O)CC[C@@]3(O)[C@@H]4C[C@H]5O[C@]56CC=CC(=O)[C@]6(C)[C@H]4CC[C@]23C)C1
29.74
COc1c2c(c(CC=C(C)C)c3oc(=O)c(-c4ccc(O)cc4)c(O)c13)OC(C)(C)C=C2
41.01
Nc1ccc(N=Nc2ccccc2Cl)c(N)n1
14.38
COc1cc2c3c(cc4ccccc4c3c1O)N(C)CC2
73.42
CC1(C)CCC2=C(O1)c1ccccc1C(=O)C2=O
76.06

Quick one: % Inhibition 10 uM of `Cc1ccc2c(c1)C=C/C(=C\C=C1/C=CC(=O)c3ncccc31)N2C` ?
84.83

Quick one: % Inhibition 10 uM of `Cc1nc(/N=N/c2ccccc2)[nH]c1/N=N/c1ccccc1` ?
62.4

Quick one: % Inhibition 10 uM of `COC(=O)c1cc(-c2c[nH]cc2C(=O)OCc2ccccc2)cn1S(=O)(=O)c1ccc(C)cc1` ?
33.32

Quick one: % Inhibition 10 uM of `COc1cc(/N=N/c2cccc(S(N)(=O)=O)c2)c2ccccc2c1N` ?
78.97

Quick one: % Inhibition 10 uM of COc1c2c(cc3c1C1Oc4c(ccc(O)c4CC=C(C)C)C1CO3)OC(C)(C)C=C2 (stereo not shown) ?
85.82

---

Items are presented alongside their recorded % Inhibition 10 uM.
target-entity: MYC:TRRAP interaction (Homo sapiens, UniProt P01106+Q9Y4A5)
assay-overview: MYC:TRRAP in-cell luminescence complementation assay (NanoBiT; SmB-MYC 1-190 and TRRAP 2033-2283-LgB in HeLa cells)
Assay type: cell-based
assay-context: Table 2; compounds with >80% similarity to compound 10 (NSC657456); 10 uM

N=C(N)/N=N/c1c(O)[nH]c2ccccc12
123.9%
O=C(Cc1ccccc1)/N=N/c1c(O)[nH]c2ccccc12
86.67%
Cc1ccc(/N=C(S)/N=N/c2c(O)[nH]c3ccccc23)cc1
86.98%
CN(C)C(=S)/N=N/c1c(O)[nH]c2ccccc12
86.25%
Nn1c(S)nnc1/N=N/c1c(O)[nH]c2ccccc12
71.88%

Lookup: % Inhibition 10 uM / MYC:TRRAP interaction (Homo sapiens, UniProt P01106+Q9Y4A5) / `O=[N+]([O-])c1ccc(/N=N/c2c(O)[nH]c3ccccc23)cc1`
54.48%

Lookup: % Inhibition 10 uM / MYC:TRRAP interaction (Homo sapiens, UniProt P01106+Q9Y4A5) / `O=C(/N=N/c1c(O)[nH]c2ccccc12)Nc1ccccc1`
83.25%

Lookup: % Inhibition 10 uM / MYC:TRRAP interaction (Homo sapiens, UniProt P01106+Q9Y4A5) / `Cc1ccccc1/N=C(S)/N=N/c1c(O)[nH]c2ccccc12`
111.9%

Lookup: % Inhibition 10 uM / MYC:TRRAP interaction (Homo sapiens, UniProt P01106+Q9Y4A5) / `Cc1ccccc1/N=N/c1c(O)[nH]c2ccccc12`
94.76%

Lookup: % Inhibition 10 uM / MYC:TRRAP interaction (Homo sapiens, UniProt P01106+Q9Y4A5) / Oc1[nH]c2ccccc2c1/N=N/C1=NCCCCN1 [Compound 1037, hydroiodide]
85.49%

Lookup: % Inhibition 10 uM / MYC:TRRAP interaction (Homo sapiens, UniProt P01106+Q9Y4A5) / NC(=O)/N=N/c1c(O)[nH]c2ccccc12 [Compound 107, (2-hydroxy-1H-indol-3-yl)iminourea]
112.6%

Lookup: % Inhibition 10 uM / MYC:TRRAP interaction (Homo sapiens, UniProt P01106+Q9Y4A5) / N#CC(=C/N=C(S)/N=N/c1c(O)[nH]c2ccccc12)c1nc2ccccc2s1 (stereo in doubt)
48.26%

---

target-entity: MYC:TRRAP interaction (Homo sapiens, UniProt P01106+Q9Y4A5)
assay-overview: MYC:TRRAP in-cell luminescence complementation assay (NanoBiT; SmB-MYC 1-190 and TRRAP 2033-2283-LgB in HeLa cells)
Type: cell-based
assay-context: Table 1; 46 primary hits at 10 uM; HeLa cells; triplicate measurements
Method: HeLa cells plated on Greiner 96-well TC-rated white plates with clear bottoms were used for the following measurements. Reverse transfections were carried out using LipoD293™ before cells were plated. A bluescript KS' plasmid (Addgene) was used as carrier DNA for transfections, and a pcDNA3.1 EGFP plasmid (ThermoFisher) was used as a fluorescence reporter. White light-reflecting film (USA Scientific) was used to cover the bottom of the plates for luminescence measurements. […]
Class definitions on % Inhibition 10 uM: bin A = under 50%, bin B = from 50% up to 70%, bin C = 70% and over

Would you please look over these solved cases?
CC(C)(C)c1cc(C=C(C#N)C#N)cc(C(C)(C)C)c1O [Compound 25]
bin A
COC(=O)[C@H]1[C@H]2C[C@@H]3c4[nH]c5ccccc5c4CCN3C[C@H]2C[C@@H](OC(=O)c2cc(OC)c(OC)c(OC)c2)[C@@H]1OC [Compound 42]
bin C
Cc1ccc(NC(=S)C#N)c(C)c1 [Compound 26]
bin C
Cc1ccc2c(c1)C(=C(C#N)C#N)CCN2 [Compound 18]
bin B
CN(C)c1ccc(C=C2C=C(c3ccc4c(c3)CCCC4)OC2=O)cc1 (stereo in doubt) [Compound 46]
bin C

Turning to the following compound.
Textbook exercise: identify the category of the compound given here, N#C/C(S)=N/c1ccc(F)cc1 [Compound 19] , according to its measured value.
bin C

---

target-entity: MYC:TRRAP interaction (Homo sapiens, UniProt P01106+Q9Y4A5)
assay-overview: MYC:TRRAP in-cell luminescence complementation assay (NanoBiT; SmB-MYC 1-190 and TRRAP 2033-2283-LgB in HeLa cells)
Type: cell-based
assay-context: Table 2; compounds with >80% similarity to compound 10 (NSC657456); 10 uM
Items are presented alongside their recorded % Inhibition 10 uM.
Write down the value, and be sure its unit follows.

CCCNC(=S)N=Nc1c(O)[nH]c2ccccc12
88.62%
N#CC(=N)/C(C#N)=N/c1c(O)[nH]c2ccccc12
89.13%

Please find the next compound below.
Quick one: % Inhibition 10 uM of `Oc1[nH]c2ccccc2c1/N=N/C1=NCCN1` ?
91.72%

---

target-entity: MYC:TRRAP interaction (Homo sapiens, UniProt P01106+Q9Y4A5)
assay-overview: MYC:TRRAP in-cell luminescence complementation assay (NanoBiT; SmB-MYC 1-190 and TRRAP 2033-2283-LgB in HeLa cells)
Assay type: cell-based
assay-context: Table 2; compounds with >80% similarity to compound 10 (NSC657456); 10 uM
Record class 1 whenever % Inhibition 10 uM is at 60% or higher; record class 0 when lower.

hey, is % Inhibition 10 uM for this one >= 60%? `Cc1sc(/N=N/c2c(O)[nH]c3ccccc23)nc1-c1ccccc1`
class 0

hey, is % Inhibition 10 uM for this one >= 60%? `Oc1[nH]c2ccccc2c1/N=N/C(S)=N/c1ccccc1`
class 1

hey, is % Inhibition 10 uM for this one >= 60%? `Oc1[nH]c2ccccc2c1/N=N/c1ccccc1Cl`
class 1

hey, is % Inhibition 10 uM for this one >= 60%? `O=C(Cc1csc(/N=N/c2c(O)[nH]c3ccccc23)n1)Nc1ccccc1`
class 1

hey, is % Inhibition 10 uM for this one >= 60%? `N=C(/N=N/c1c(O)[nH]c2ccccc12)C(=N)/N=N/c1c(O)[nH]c2ccccc12`
class 1

hey, is % Inhibition 10 uM for this one >= 60%? `O=[N+]([O-])c1ccc(-c2csc(N=Nc3c(O)[nH]c4ccccc34)n2)cc1`
class 0
